molecular target: human full-length MKNK1 (GST fusion, T344D) (Homo sapiens (Human), UniProt Q9BUB5, T344D); assay: MKNK1 kinase high ATP assay (TR-FRET, 2 mM ATP); details: 15 min preincubation
Sequence (Q9BUB5 other isoform, or with tags, fused parts or gaps T344D): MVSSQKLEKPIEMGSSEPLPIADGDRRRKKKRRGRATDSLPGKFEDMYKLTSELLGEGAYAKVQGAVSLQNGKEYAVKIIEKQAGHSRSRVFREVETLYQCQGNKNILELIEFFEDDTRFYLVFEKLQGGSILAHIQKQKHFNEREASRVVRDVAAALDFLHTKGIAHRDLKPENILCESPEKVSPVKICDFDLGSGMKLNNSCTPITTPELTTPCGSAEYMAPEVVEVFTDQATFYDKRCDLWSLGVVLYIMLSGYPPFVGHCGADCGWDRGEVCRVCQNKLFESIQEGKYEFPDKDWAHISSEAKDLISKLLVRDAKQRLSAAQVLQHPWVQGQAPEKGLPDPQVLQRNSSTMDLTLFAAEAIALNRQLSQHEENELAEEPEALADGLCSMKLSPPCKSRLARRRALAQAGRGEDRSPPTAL
Quick rule for you: IC50 under 40 nM gets criterion met, anything else gets criterion not met.

Q) Hello, I'm reviewing records and need to know if IC50 of Cc1cccc(CCC(=O)Nc2ccc3ncc(-c4cc5ccccc5o4)n3n2)c1 [Example 31] is below 40 nM. Could you check?
A) criterion not met

====

Reported IC50 values follow for various molecules
target: human full-lengt MKNK1 (GST fusion, T344D) (Homo sapiens (Human), UniProt Q9BUB5, T344D); test: MKNK1 kinase assay (TR-FRET, 10 μM ATP); conditions: 15 min preincubation
Give the value, in units of nM, as a plain number.

Please review the following examples before continuing.
>>> print(df.to_string())
                                   molecule  unit_label  val
0  O=C(CCc1c[nH]cn1)Nc1ccc2ncc(-c3cc4ccccc4o3)n2n1          nM    8
1  CC1CCN(CC(=O)Nc2ccc3ncc(-c4cc5ccccc5o4)n3n2)CC1          nM   17
2  O=C1CC[C@@H](CO)N1c1ccc2ncc(-c3cc4ccccc4o3)n2n1          nM    3
3  O=C(Nc1ccc2ncc(-c3cc4ccccc4o3)n2n1)C(O)c1cccnc1 (stereo not drawn)          nM    3
4  Cc1cccc(CCC(=O)Nc2ccc3ncc(-c4cc5ccccc5o4)n3n2)c1          nM   67
5  COc1nccc2oc(-c3cnc4ccc(NC(=O)[C@@H](C)O)nn34)cc12          nM    3

Q) Fill blank: measured IC50 of the molecule CC(C)CC(=O)Nc1ccc2ncc(-c3cc4ccccc4o3)n2n1 is ____.
A) 4

Q) Query: IC50; subject: O=C(Cc1cccc(F)c1)Nc1ccc2ncc(-c3cc4ccccc4o3)n2n1
A) 10

Q) Param item = C[C@H](O)C(=O)Nc1ccc2ncc(-c3cc4ccccc4o3)n2n1 ; retrieve measured IC50.
A) 8
